Assay: qHTS RealTime-Glo MT Cell Viability Assay in HepG2 cells - 24 hour (AID 1224867); further: nearly all actives have a fitted effect of over 50% in size
Details: RealTime-Glo luminescence; series mostly up to 76.8 µM
Records with an inconclusive call do not appear. The source made the active and inactive calls. The call rests on the fitted dose curve; in most records, active means well fitted cell-killing curve with a large enough effect in the repeat runs; inconclusive means weak or mixed curves; inactive means flat fitted curve, though single readings scatter.
Hi! Could you answer with just one of these? yes (1) = active, no (0) = inactive

Some entries whose results are on file:
>>> label("C[Si](C)(C)Cl")
"no (0)"
>>> label("C/C=C/CO")
"no (0)"
>>> label("C=C[C@](C)(O)CC[C@@H]1[C@@]2(C)CCCC(C)(C)[C@@H]2CC[C@@]1(C)O")
"yes (1)"
>>> label("COc1ccccc1OCCNCC(O)COc1cccc2[nH]c3ccccc3c12 (stereo not given)")
"yes (1)"
>>> label("CCCCCCS")
"no (0)"
>>> label("C[C@@H]1CC[C@H]2C(C)(C)[C@H]3C[C@@]12CC[C@@]3(C)O")
"no (0)"
>>> label("CCCCCCCCCCCCCOP(=O)(O)O")
"no (0)"
>>> label("Oc1ccc(-c2ccccc2)c(Cl)c1")
"no (0)"

Turning to the following molecule.
Q: Name the outcome recorded for `CC(C)C(=O)OCc1ccccc1` in the assay.
A: no (0)

====

Assay: qHTS assay to identify small molecule agonists of the progesterone receptor (PR) signaling pathway - cell viability counter screen (AID 1346799); further: nearly all actives have a fitted effect of over 45% in size
Details: PR-UAS-bla HEK293T viability, CellTiter-Glo luminescence, 16 h; series mostly up to 92.4 µM
Inconclusive results are not listed. Activity calls are given as the source filed them. The call rests on the fitted dose curve.
Hi! Could you answer with just one of these? 1.0 for active, 0.0 for inactive

Q: Name the outcome recorded for `O=C1NCCN1CCN1CCC(c2cn(-c3ccc(F)cc3)c3ccc(Cl)cc23)CC1` in the assay.
A: 0.0

Q: Name the outcome recorded for `CCN=c1cc2oc3cc(NCC)c(C)cc3c(-c3ccccc3C(=O)OCC)c-2cc1C` in the assay.
A: 1.0

Q: Name the outcome recorded for `COc1nccnc1CC(C)C` in the assay.
A: 0.0

====

Experiment: qHTS assay to identify small molecule agonists of the hypoxia (HIF-1) signaling pathway - cell viability counter screen (AID 1224844); further: nearly all actives have a fitted effect of over 50% in size
Settings: HRE-bla ME-180 viability, CellTiter-Glo luminescence, 17 h; series mostly up to 76.8 µM
Inconclusive results are not listed. The source made the active and inactive calls. The call rests on the fitted dose curve.
Hi! Could you answer with just one of these? label 1 for active, label 0 for inactive

>>> label("CCN(CC)CCNc1ccc(CO)c2sc3ccccc3c(=O)c12")
"label 1"
>>> label("CCN(CC)CCOC(=O)C1(C2CCCCC2)CCCCC1")
"label 0"
>>> label("CC(COC(=O)c1ccccc1)OC(=O)c1ccccc1 (configuration not stated)")
"label 0"

Q: Name the outcome recorded for `CC(C)OC(=O)c1cc(C(=O)OC(C)C)cc([N+](=O)[O-])c1` in the assay.
A: label 0

Q: Name the outcome recorded for `CCOCOCC` in the assay.
A: label 0

Q: Name the outcome recorded for `CCN(CC)CCCN(c1ccccc1)C1Cc2ccccc2C1` in the assay.
A: label 1

Q: Name the outcome recorded for `COc1cc(C=C2CCC/C(=C\c3ccc(O)c(OC)c3)C2=O)ccc1O` in the assay.
A: label 1

Q: Name the outcome recorded for `C=C[C@](C)(O)CC[C@@H]1[C@@]2(C)CCCC(C)(C)[C@@H]2CC[C@@]1(C)O` in the assay.
A: label 1

Q: Name the outcome recorded for `CCc1ccc(O)c(C(C)(C)C)c1` in the assay.
A: label 0
